The values you see were collected from the supplement of paper PMC10307832.

# Test system: SK-MES-1
# test_method_notes: relative viability (nuclei count vs DMSO), 5 days (fraction); higher = more cells survive
# stated_conditions: first compound 0.08 µM
endpoint: relative viability

# count of solved cases: 3
[
  {
    "compound": "COc1nc(C)cnc1NS(=O)(=O)c1cccnc1-c1ccc(-c2nnco2)cc1 [Zibotentan] + COc1cccc2cc(-c3nc([C@H]4CC[C@H](C(=O)O)CC4)n4ncnc(N)c34)[nH]c12 [OSI-027] (partner 0.5 µM)",
    "endpoint": "relative viability",
    "result": 0.595
  },
  {
    "compound": "O=c1cc(-c2cccc3c2Sc2ccccc2S3)oc(N2CCOCC2)c1 + O=C(c1cc(Cc2n[nH]c(=O)c3ccccc23)ccc1F)N1CCN(C(=O)C2CC2)CC1 [Olaparib] (partner 8 µM)",
    "endpoint": "relative viability",
    "result": 0.756
  },
  {
    "compound": "O=c1cc(-c2cccc3c2Sc2ccccc2S3)oc(N2CCOCC2)c1 + Cc1nc(Nc2ncc(C(=O)Nc3c(C)cccc3Cl)s2)cc(N2CCN(CCO)CC2)n1 [Dasatinib] (partner 0.075 µM)",
    "endpoint": "relative viability",
    "result": 0.335
  }
]

Problem: Sample O=c1cc(-c2cccc3c2Sc2ccccc2S3)oc(N2CCOCC2)c1 + Nc1nc2[nH]cc(CCc3ccc(C(=O)N[C@@H](CCC(=O)O)C(=O)O)cc3)c2c(=O)[nH]1 [Pemetrexed] (partner 0.2 µM) — what was its relative viability?
Result: 1.07

Problem: Sample O=c1cc(-c2cccc3c2Sc2ccccc2S3)oc(N2CCOCC2)c1 + CC1(C)CCC(c2ccc(Cl)cc2)=C(CN2CCN(c3ccc(C(=O)NS(=O)(=O)c4ccc(N[C@H](CCN5CCOCC5)CSc5ccccc5)c(S(=O)(=O)C(F)(F)F)c4)cc3)CC2)C1 [Navitoclax] (partner 0.5 µM) — what was its relative viability?
Result: 1.1

----------
# Tested on: NCI-H2405
# test_method_notes: relative viability (nuclei count vs DMSO), 5 days (fraction); higher = more cells survive
# stated_conditions: first compound 0.08 µM
endpoint: relative viability
Number only, please.

[
  {
    "molecule": "COc1nc(C)cnc1NS(=O)(=O)c1cccnc1-c1ccc(-c2nnco2)cc1 [Zibotentan] + COc1cc2c(Oc3ccc(NC(=O)C4(C(=O)Nc5ccc(F)cc5)CC4)cc3F)ccnc2cc1OCCCN1CCOCC1 [Foretinib] (partner 0.25 µM)",
    "tested_target": "NCI-H2405",
    "numeric_readout": 1.1
  },
  {
    "molecule": "O=c1cc(-c2cccc3c2Sc2ccccc2S3)oc(N2CCOCC2)c1 + CC1(C)CCC(c2ccc(Cl)cc2)=C(CN2CCN(c3ccc(C(=O)NS(=O)(=O)c4ccc(N[C@H](CCN5CCOCC5)CSc5ccccc5)c(S(=O)(=O)C(F)(F)F)c4)cc3)CC2)C1 [Navitoclax] (partner 0.5 µM)",
    "tested_target": "NCI-H2405",
    "numeric_readout": 0.887
  },
  {
    "molecule": "COc1nc(C)cnc1NS(=O)(=O)c1cccnc1-c1ccc(-c2nnco2)cc1 [Zibotentan] + CC(C)C[C@H](NC(=O)[C@H](Cc1ccccc1)NC(=O)c1cnccn1)B(O)O [Bortezomib] (partner 0.002 µM)",
    "tested_target": "NCI-H2405",
    "numeric_readout": 1.02
  }
]

Problem: # get_value(readout= relative viability, system= NCI-H2405) for COc1nc(C)cnc1NS(=O)(=O)c1cccnc1-c1ccc(-c2nnco2)cc1 [Zibotentan] + NC(=O)Nc1cc(-c2cccc(F)c2)sc1C(=O)N[C@H]1CCCNC1 [AZD7762] (partner 0.2 µM)
Result: 0.766

----------
# Tested on: HCC-827
# test_method_notes: relative viability (nuclei count vs DMSO), 5 days (fraction); higher = more cells survive
# stated_conditions: first compound 0.8 µM
relative viability listing for selected compounds.
Number only, please.

[
  {
    "compound": "O=c1cc(-c2cccc3c2Sc2ccccc2S3)oc(N2CCOCC2)c1 + Nc1ncn([C@H]2C[C@H](O)[C@@H](CO)O2)c(=O)n1 [Decitabine] (partner 2 µM)",
    "tested_target": "HCC-827",
    "relative viability": 0.315
  }
]

Problem: Sample O=c1cc(-c2cccc3c2Sc2ccccc2S3)oc(N2CCOCC2)c1 + N=C(N)NC(=N)NCCc1ccccc1 [Phenformin] (partner 250 µM) — what was its relative viability?
Result: 0.402

Problem: Sample O=c1cc(-c2cccc3c2Sc2ccccc2S3)oc(N2CCOCC2)c1 + Nc1nc2[nH]cc(CCc3ccc(C(=O)N[C@@H](CCC(=O)O)C(=O)O)cc3)c2c(=O)[nH]1 [Pemetrexed] (partner 0.2 µM) — what was its relative viability?
Result: 0.244

----------
# Tested on: LCLC-97TM1
# test_method_notes: relative viability (nuclei count vs DMSO), 5 days (fraction); higher = more cells survive
# stated_conditions: first compound 0.03162 µM
relative viability listing for selected compounds.
Number only, please.

# count of solved cases: 3
[
  {
    "compound": "O=c1cc(N2CCOCC2)oc2c(-c3cccc4c3sc3ccccc34)cccc12 + Cc1cc(Nc2cc(N3CCN(C)CC3)nc(Sc3ccc(NC(=O)C4CC4)cc3)n2)n[nH]1 [Tozasertib] (partner 0.1 µM)",
    "tested_target": "LCLC-97TM1",
    "relative viability": 0.246
  },
  {
    "compound": "CCN(CC)CCCCNc1ncc2cc(-c3cc(OC)cc(OC)c3)c(NC(=O)NC(C)(C)C)nc2n1 + Cc1cc(Nc2cc(N3CCN(C)CC3)nc(Sc3ccc(NC(=O)C4CC4)cc3)n2)n[nH]1 [Tozasertib] (partner 0.1 µM)",
    "tested_target": "LCLC-97TM1",
    "relative viability": 0.268
  },
  {
    "compound": "CCN(CC)CCCCNc1ncc2cc(-c3cc(OC)cc(OC)c3)c(NC(=O)NC(C)(C)C)nc2n1 + C[C@@H](Oc1cc(-c2cnn(C3CCNCC3)c2)cnc1N)c1c(Cl)ccc(F)c1Cl [Crizotinib] (partner 1 µM)",
    "tested_target": "LCLC-97TM1",
    "relative viability": 0.45
  }
]

Now turn to the next compound.
Problem: Sample CCN(CC)CCCCNc1ncc2cc(-c3cc(OC)cc(OC)c3)c(NC(=O)NC(C)(C)C)nc2n1 + CC(=O)Nc1cccc(-n2c(=O)n(C3CC3)c(=O)c3c(Nc4ccc(I)cc4F)n(C)c(=O)c(C)c32)c1 [Trametinib] (partner 0.02 µM) — what was its relative viability?
Result: 0.189

----------
# Test system: NCI-H358
# test_method_notes: relative viability (nuclei count vs DMSO), 5 days (fraction); higher = more cells survive
# stated_conditions: first compound 0.08 µM
Classify: rule met when relative viability is strictly less than 0.6; rule not met when relative viability is not.

Sample answers from the record:
[
  {
    "molecule": "O=c1cc(-c2cccc3c2Sc2ccccc2S3)oc(N2CCOCC2)c1 + Cc1cc(Nc2cc(N3CCN(C)CC3)nc(Sc3ccc(NC(=O)C4CC4)cc3)n2)n[nH]1 [Tozasertib] (partner 0.1 µM)",
    "class_name": "rule met"
  },
  {
    "molecule": "O=c1cc(-c2cccc3c2Sc2ccccc2S3)oc(N2CCOCC2)c1 + CCNC(=O)c1noc(-c2cc(C(C)C)c(O)cc2O)c1-c1ccc(CN2CCOCC2)cc1 [Luminespib] (partner 0.01 µM)",
    "class_name": "rule met"
  },
  {
    "molecule": "O=c1cc(-c2cccc3c2Sc2ccccc2S3)oc(N2CCOCC2)c1 + O=C(c1cc(Cc2n[nH]c(=O)c3ccccc23)ccc1F)N1CCN(C(=O)C2CC2)CC1 [Olaparib] (partner 8 µM)",
    "class_name": "rule not met"
  },
  {
    "molecule": "O=c1cc(-c2cccc3c2Sc2ccccc2S3)oc(N2CCOCC2)c1 + C[C@]1(O)C[C@@H](c2nc(-c3ccc4ccc(-c5ccccc5)nc4c3)c3c(N)nccn32)C1 [Linsitinib] (partner 1 µM)",
    "class_name": "rule not met"
  },
  {
    "molecule": "O=c1cc(-c2cccc3c2Sc2ccccc2S3)oc(N2CCOCC2)c1 + NC(=O)Nc1cc(-c2cccc(F)c2)sc1C(=O)N[C@H]1CCCNC1 [AZD7762] (partner 0.2 µM)",
    "class_name": "rule met"
  }
]

Problem: Take the molecule COc1nc(C)cnc1NS(=O)(=O)c1cccnc1-c1ccc(-c2nnco2)cc1 [Zibotentan] + CS(=O)(=O)N1CCN(Cc2cc3nc(-c4cccc5[nH]ncc45)nc(N4CCOCC4)c3s2)CC1 [Pictilisib] (partner 1 µM) and say whether its relative viability is less than 0.6.
Result: rule met

Problem: Take the molecule COc1nc(C)cnc1NS(=O)(=O)c1cccnc1-c1ccc(-c2nnco2)cc1 [Zibotentan] + Cc1nc(NC(=O)N2CCC[C@H]2C(N)=O)sc1-c1ccnc(C(C)(C)C(F)(F)F)c1 [Alpelisib] (partner 2 µM) and say whether its relative viability is less than 0.6.
Result: rule not met

Problem: Take the molecule O=c1cc(-c2cccc3c2Sc2ccccc2S3)oc(N2CCOCC2)c1 + Cc1nc(Nc2ncc(C(=O)Nc3c(C)cccc3Cl)s2)cc(N2CCN(CCO)CC2)n1 [Dasatinib] (partner 0.075 µM) and say whether its relative viability is less than 0.6.
Result: rule met
